These data points were gathered from patent US20260234137A1.

Molecular target: human GC-A (Homo sapiens, UniProt P16066)
Construct: host or cells: HEK293
Assay: cGMP potentiation (HTRF) in human GC-A overexpressing HEK293 cells with EC20 ANP
Assay type: cell-based
Settings: Table 1
property_label: LLE

# compound, property_label, measured_value
rows = [
    ("O=C(Nc1nc2c(F)cc(F)cc2s1)C1CCCN(CCn2cccn2)C1 (stereo not shown) [JUF-S4-012]", "LLE", 2.91),
    ("CN1CC(N2CCCC(C(=O)Nc3nc4c(F)cc(F)cc4s3)C2)C1 (stereo not shown) [JUF-S4-029]", "LLE", 5.11),
]

---

Target: human GC-A (Homo sapiens, UniProt P16066)
Construct: host or cells: HEK293
Sequence (P16066 33-1061): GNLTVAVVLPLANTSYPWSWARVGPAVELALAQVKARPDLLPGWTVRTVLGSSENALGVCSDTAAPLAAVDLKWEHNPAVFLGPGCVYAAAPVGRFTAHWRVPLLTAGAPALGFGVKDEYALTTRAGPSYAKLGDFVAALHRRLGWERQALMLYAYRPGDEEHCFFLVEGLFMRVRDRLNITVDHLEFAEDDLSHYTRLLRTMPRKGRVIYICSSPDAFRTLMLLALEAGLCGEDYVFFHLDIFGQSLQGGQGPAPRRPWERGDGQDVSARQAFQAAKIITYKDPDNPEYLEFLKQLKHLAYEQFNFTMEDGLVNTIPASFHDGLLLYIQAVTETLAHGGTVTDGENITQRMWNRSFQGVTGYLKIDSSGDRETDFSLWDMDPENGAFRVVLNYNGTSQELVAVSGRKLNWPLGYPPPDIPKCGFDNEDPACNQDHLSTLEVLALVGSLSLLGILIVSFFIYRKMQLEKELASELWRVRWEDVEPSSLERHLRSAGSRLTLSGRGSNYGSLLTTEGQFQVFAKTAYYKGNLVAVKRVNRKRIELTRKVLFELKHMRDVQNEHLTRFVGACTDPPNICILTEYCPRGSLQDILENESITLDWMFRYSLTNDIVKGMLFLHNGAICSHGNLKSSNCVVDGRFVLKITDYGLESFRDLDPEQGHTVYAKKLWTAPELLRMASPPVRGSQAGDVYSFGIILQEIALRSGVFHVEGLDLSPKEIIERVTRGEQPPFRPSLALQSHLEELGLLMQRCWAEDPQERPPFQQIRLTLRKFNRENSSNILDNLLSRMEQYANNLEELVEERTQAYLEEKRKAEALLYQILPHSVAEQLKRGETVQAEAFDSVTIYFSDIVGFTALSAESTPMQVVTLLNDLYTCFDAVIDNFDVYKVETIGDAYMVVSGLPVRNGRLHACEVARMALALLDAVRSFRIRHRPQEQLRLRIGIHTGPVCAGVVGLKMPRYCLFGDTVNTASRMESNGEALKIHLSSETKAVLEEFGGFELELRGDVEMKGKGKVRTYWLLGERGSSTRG
Sequence (P01160 124-151 partner limits assumed): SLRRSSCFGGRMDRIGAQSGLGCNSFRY
Test: cGMP potentiation (HTRF) in human GC-A overexpressing HEK293 cells with EC20 ANP
Assay type: cell-based
Settings: FIG. 2; titrated on each 384-test plate; read-out: Acceptable EC50 values of internal control
Method: Test compounds were evaluated for potentiation of cGMP in human GC-A overexpressing HEK293 cells (Cardiorenal Research Laboratory, Mayo Clinic). […] GC-A-mediated activation of cGMP production was measured using cGMP CisBio detection homogenous time-resolved florescence (HTRF) competition assay using labeled-cGMP in human GC-A-overexpressing HEK293 cells. […] HTRF florescence was read on the ClarioStar microplate reader (BMG). […]
pEC50: −log10 of the molar value.

# compound, tested_target, pEC50
measured = [
    ("CN(C)CCN1CCCC(C(=O)Nc2nc3c(F)cc(F)cc3s2)C1 (stereo not shown) [MCUF 651, reference compound]", "human GC-A (Homo sapiens, UniProt P16066)", "6.22 to 6.70"),
]
